# Test system: Toxoplasma gondii RH-2F tachyzoites
# Procedure details: microbe, parasite or virus in culture
# Experimental parameters: 72 h, read-out: Parasite inhibition (%) mean, preliminary screen of compound library, mean
Structures can show the parent of a compound that is named as a salt.
Readout kind: inhibition of growth at 5 µM
Param answer (str): number followed by unit.

Compound | inhibition of growth at 5 µM
C=C1/C(=C/C=C2\CCC[C@@]3(C)[C@H]2CC[C@H]3[C@H](C)/C=C/[C@@H](C)C(C)C)C[C@H](O)C[C@@H]1O [Doxercalciferol (Hectorol)] | 0.1%

[ask] So what does the record say about inhibition of growth at 5 µM for COc1ccc2[nH]c([S+]([O-])Cc3ncc(C)c(OC)c3C)nc2c1 (stereo not drawn) [Esomeprazole sodium (Nexium)] ?
[reply] 14.2%

[ask] Next compound up: C[C@]12CC[C@H](O)CC1=CCC1C2CC[C@]2(C)C(n3cnc4ccccc43)=CCC12 (stereo partly drawn) [Galeterone (TOK-001)]
[reply] 0.4%

[ask] One more compound: CC(C)OC(=O)C1=CN(C(=O)c2ccc(F)c(F)c2)CC(C)(C)c2c1[nH]c1ccccc21 [WAY-362450]
[reply] -2.1%

[ask] And then CC(C)(C)NCC(O)c1cc(O)cc(O)c1 (stereo not drawn) [Terbutaline Sulfate] , what is it?
[reply] 40.1%

[ask] What do you get for CC(C(=O)O)c1ccc2c(c1)CC(=O)c1ccccc1S2 (stereo not drawn) [Zaltoprofen] ?
[reply] 3.3%

[ask] Moving on to the next compound: CCOC(=O)c1ccc(C#Cc2ccc3c(c2)C(C)(C)CCS3)nc1 [Tazarotene (Avage)]
[reply] -0.7%

[ask] Follow-up entry: C[C@@H](O[C@H]1OCCN(Cc2nn(P(=O)(O)O)c(=O)[nH]2)[C@H]1c1ccc(F)cc1)c1cc(C(F)(F)F)cc(C(F)(F)F)c1 [Fosaprepitant dimeglumine]
[reply] -2.8%

[ask] Then COc1cc[nH]c2ncc(C(=O)C(=O)N3CCN(C(=O)c4ccccc4)C[C@H]3C)c1-2 [BMS-806 (BMS 378806)] ?
[reply] 0.3%

---

# System: Toxoplasma gondii RH-2F tachyzoites
# Procedure details: microbe, parasite or virus in culture
# Experimental parameters: 72 h, read-out: Parasite inhibition (%) mean, preliminary screen of compound library, mean
Output true (1) for inhibition of growth at 5 µM not less than 20%; output false (0) otherwise.

Some entries whose results are on file:
Molecule | Target | Discrete label
COc1ncc(-c2ccc3nccc(-c4ccnnc4)c3c2)cc1NS(=O)(=O)c1ccc(F)cc1F [GSK2126458] | Toxoplasma gondii RH-2F tachyzoites | true (1)
Cc1ccc2c(c1)C(=O)[C@]1(O)CCN(c3ccccc3)C1=N2 [(−)-Blebbistatin] | Toxoplasma gondii RH-2F tachyzoites | false (0)
c1ccc(NCc2ccc(CNc3ccccn3)cc2)nc1 [WZ 811] | Toxoplasma gondii RH-2F tachyzoites | false (0)
O=C(O)c1ccc(-n2nc(-c3ccccc3O)nc2-c2ccccc2O)cc1 [Deferasirox (Exjade)] | Toxoplasma gondii RH-2F tachyzoites | false (0)

Below: the item to evaluate.
[ask] # check: inhibition of growth at 5 µM of Cc1c(CN2CCN(C(=O)[C@H](C)O)CC2)sc2c(N3CCOCC3)nc(-c3cnc(N)nc3)nc12 [GDC-0980 (RG7422)] is greater than or equal to 20%
[reply] true (1)

Reference source for all entries: paper PMC7216583
